Recorded Ki for compounds tested on UniProtKB P06401, drawn from a number of studies.
measuredEndpoint: Ki (nM)

a: O=S(=O)(c1ccc(Cl)cc1)N1CCCCC(c2cccc(F)c2)=N1
b: CC(C)(C(=O)NC(N)=O)[C@@H]1c2ccc(-c3ccc(C(=O)N4CCOCC4)cc3)nc2Oc2c(F)cccc21
c: Cc1c[nH]c2c(-c3c(F)cc4c(c3F)/C(=N/OC(C)C)CC(C)(C)N4)cccc12
Lookup: Exam item: list the entries in increasing order of Ki. List the labels according to the requested ordering.
Found: b, c, a
(b: 52.8 nM, c: 380 nM, a: 794 nM)

====

Recorded pKi for compounds tested on Progesterone receptor (Homo sapiens), drawn from a number of studies.
pKi: −log10 of the molar value.
measuredEndpoint: pKi

Reference set, count: 8
compound	pKi
C=C1[C@@H](Cc2cc(OC)c(Br)cc2O)C(C)(C)CC[C@@]1(C)O	6.56
O=S(=O)(c1ccc(Cl)s1)N1CCCCC(c2ccc(Cl)c(Cl)c2)=N1	7.40
C=C1CCCC(C)(C)C1Cc1cc(OC)c(Br)cc1O (centres undefined)	7.11
C=C1C[C@H](C)CC(C)(C)[C@@H]1Cc1cc(OC)c(Br)cc1O	7.66
COc1c(O)ccc2c1-c1ccc3c(c1/C(=C/c1sccc1CO)O2)C(C)=CC(C)(C)N3	5.85
CC1=CC(C)(C)Nc2ccc3c(c21)/C(=C/c1ccc(F)cc1)Oc1ccccc1-3	8.46
CC1=CC(C)(C)Nc2ccc3c(c21)/C(=C/c1cccc(F)c1)Oc1ccccc1-3	9.08
O=S(=O)(c1ccc(Br)s1)N1CCCCC(c2cccc(Br)c2)=N1	7.20

I: C[C@H]1C(=O)C(C)(C)Nc2ccc3c(c21)[C@H](c1ccccc1)Oc1ccccc1-3
II: COc1cc(-c2cn(C(C)C)c3cc(NS(C)(=O)=O)ccc23)ccc1C#N
III: CC(=O)NC(=O)C(C)(C)[C@@H]1c2ccc(-c3ccc(C(=O)N(C)C)cc3)nc2Oc2c(F)cccc21
IV: CC1=CC(C)(C)Nc2ccc(-c3cc(Br)c(C#N)s3)cc21
Lookup: Ordering criterion: pKi; begin with the maximum. List the labels according to the requested ordering.
Found: II, I, IV, III

A: O=[N+]([O-])c1cccc(-c2ccc3[nH]c(=S)n(Cc4ccccc4)c3c2)c1
B: CC1=CC(C)(C)Nc2cc3c(c(F)c21)-c1ccc(F)cc1C3
Lookup: # query: argmin of pKi over A and B In your reply, give the label of the chosen option.
Found: A
(A: 7.52, B: 8.82)

I: O=S(=O)(c1ccc(Br)s1)N1CCCCC(c2ccc(Cl)c(Cl)c2)=N1
II: C[C@H]1c2c(cc(F)c(-c3cccc4cc[nH]c34)c2F)NC(C)(C)[C@@H]1O (racemic)
III: CC1(C)C/C(=N\OC(C)(C)C)c2c(cc(F)c(-c3cccc4c(Cl)c[nH]c34)c2F)N1
Lookup: Ordering criterion: pKi; begin with the maximum. List the labels according to the requested ordering.
Found: I, III, II

====

Recorded pKi for compounds tested on Progesterone receptor (Homo sapiens, UniProt P06401), drawn from a number of studies.
- testSystem: Progesterone receptor (Homo sapiens, UniProt P06401)
- Sequence (P06401 whole entry): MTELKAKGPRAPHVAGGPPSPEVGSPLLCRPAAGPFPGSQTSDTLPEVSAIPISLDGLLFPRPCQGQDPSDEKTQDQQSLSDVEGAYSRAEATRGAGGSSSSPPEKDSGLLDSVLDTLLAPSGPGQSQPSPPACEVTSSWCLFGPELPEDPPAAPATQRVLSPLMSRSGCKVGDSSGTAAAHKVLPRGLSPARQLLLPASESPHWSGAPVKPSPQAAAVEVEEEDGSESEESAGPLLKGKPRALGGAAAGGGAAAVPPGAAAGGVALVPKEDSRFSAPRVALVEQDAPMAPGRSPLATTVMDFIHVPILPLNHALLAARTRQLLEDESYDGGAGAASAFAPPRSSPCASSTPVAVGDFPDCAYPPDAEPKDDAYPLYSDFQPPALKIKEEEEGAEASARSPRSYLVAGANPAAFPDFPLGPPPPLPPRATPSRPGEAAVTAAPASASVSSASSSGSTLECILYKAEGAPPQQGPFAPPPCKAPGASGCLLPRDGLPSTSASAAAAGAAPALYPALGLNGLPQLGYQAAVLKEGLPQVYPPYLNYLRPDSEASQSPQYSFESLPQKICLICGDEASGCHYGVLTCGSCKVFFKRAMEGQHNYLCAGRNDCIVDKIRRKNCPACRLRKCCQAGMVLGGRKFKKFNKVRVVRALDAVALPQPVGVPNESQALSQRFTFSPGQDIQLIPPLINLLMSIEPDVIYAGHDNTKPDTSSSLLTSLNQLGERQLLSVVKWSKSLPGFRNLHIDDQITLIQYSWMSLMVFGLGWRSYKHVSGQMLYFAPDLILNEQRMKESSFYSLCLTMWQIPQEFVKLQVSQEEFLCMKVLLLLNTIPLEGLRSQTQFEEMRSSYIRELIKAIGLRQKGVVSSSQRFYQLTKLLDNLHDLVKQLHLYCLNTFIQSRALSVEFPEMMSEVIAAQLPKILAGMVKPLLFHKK
pKi: −log10 of the molar value.
measuredEndpoint: pKi

> print(dat)
                                   compound  measuredendpoint  measured
1  C[C@H]1C(=O)C(C)(C)Nc2ccc3c(c21)[C@H](c1cccc(C(F)(F)F)c1)Oc1ccccc1-3               pKi      6.91
2  COc1cc(NS(C)(=O)=O)c2[nH]c(C)c(-c3cc(F)ccc3OC)c2c1               pKi      7.65
3  CCCc1ccc(-c2ccc3c(n2)Oc2ccccc2[C@H]3C(C)(C)C(=O)Nc2nncs2)cc1               pKi      6.55

P: C[C@]12Cn3cnc(-c4ccc(F)cc4)c3C=C1CCC[C@@H]2[C@H](O)c1ccc(F)cc1 (stereo in doubt; 19)
Q: CC(C)(C(=O)Nc1nccs1)[C@@H](c1ccccc1)c1ccc(O)c(F)c1
Lookup: # query: argmin of pKi over P and Q In your reply, give the label of the chosen option.
Found: P
(P: 6.35, Q: 7.28)

====

- testSystem: Progesterone receptor (Homo sapiens)
- Sequence (P06401 whole entry): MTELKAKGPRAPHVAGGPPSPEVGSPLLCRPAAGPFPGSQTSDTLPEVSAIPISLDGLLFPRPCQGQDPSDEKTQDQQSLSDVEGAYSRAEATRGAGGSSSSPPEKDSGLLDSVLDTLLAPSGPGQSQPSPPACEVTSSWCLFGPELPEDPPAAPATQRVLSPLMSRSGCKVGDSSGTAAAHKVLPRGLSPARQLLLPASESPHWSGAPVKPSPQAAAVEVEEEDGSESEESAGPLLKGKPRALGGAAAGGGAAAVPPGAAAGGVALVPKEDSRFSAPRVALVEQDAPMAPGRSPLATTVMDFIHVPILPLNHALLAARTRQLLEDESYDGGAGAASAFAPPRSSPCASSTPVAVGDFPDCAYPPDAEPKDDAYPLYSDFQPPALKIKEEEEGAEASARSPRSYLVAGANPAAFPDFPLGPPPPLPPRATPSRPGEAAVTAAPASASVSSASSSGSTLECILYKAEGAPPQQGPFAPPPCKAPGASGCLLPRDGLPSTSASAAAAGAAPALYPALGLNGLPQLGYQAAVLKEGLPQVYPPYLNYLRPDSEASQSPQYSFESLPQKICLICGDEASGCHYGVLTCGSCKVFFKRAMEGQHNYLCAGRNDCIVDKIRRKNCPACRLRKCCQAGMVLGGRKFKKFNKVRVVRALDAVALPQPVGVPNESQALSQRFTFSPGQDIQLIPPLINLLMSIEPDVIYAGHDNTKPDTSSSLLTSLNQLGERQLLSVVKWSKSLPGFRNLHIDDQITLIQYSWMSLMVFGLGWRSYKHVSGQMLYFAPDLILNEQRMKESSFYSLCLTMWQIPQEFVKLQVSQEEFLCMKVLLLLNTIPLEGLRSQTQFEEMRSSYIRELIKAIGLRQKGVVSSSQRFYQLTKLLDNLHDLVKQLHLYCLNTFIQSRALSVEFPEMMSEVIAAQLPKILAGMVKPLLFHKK
pKi: −log10 of the molar value.
Recorded pKi for compounds tested on Progesterone receptor (Homo sapiens), drawn from a number of studies.
measuredEndpoint: pKi

Reference set, count: 2
> print(dat)
                                 smilescode  measuredendpoint  measured
1  CC1=CC(C)(C)Nc2ccc3c(c21)/C(=C/c1ccc(Br)cc1)Oc1ccccc1-3               pKi      8.06
2  CC(=O)NC(=O)C(C)(C)[C@@H]1c2ccc(-c3ccc(C(=O)N4CCCC4)cc3)nc2Oc2c(F)cccc21               pKi      4.91

A: CC(C)(C(=O)Nc1nncs1)[C@@H](c1ccccc1)c1ccc2c(cnn2-c2ccc(F)cc2)c1
B: CC(C)(C(=O)NC(=O)C1CCC1)[C@@H]1c2ccc(-c3ccc(C(=O)N4CCOCC4)cc3)nc2Oc2c(F)cccc21
Lookup: # query: argmin of pKi over A and B In your reply, give the label of the chosen option.
Found: B
(B: 5.27, A: 6.97)
